molecular target: α1d-AR (Homo sapiens, UniProt P25100); construct: expressed in transfected cells; host or cells: COS-7; assay: α1-Adrenergic receptor radio-ligand (125I-HEAT) binding assay, α1d subtype; conditions: Receptor Binding, Ki α1d-AR, COS-7 cell membranes transfected with α1d-AR, 125I-HEAT 50 pM
Sequence (P25100 whole entry): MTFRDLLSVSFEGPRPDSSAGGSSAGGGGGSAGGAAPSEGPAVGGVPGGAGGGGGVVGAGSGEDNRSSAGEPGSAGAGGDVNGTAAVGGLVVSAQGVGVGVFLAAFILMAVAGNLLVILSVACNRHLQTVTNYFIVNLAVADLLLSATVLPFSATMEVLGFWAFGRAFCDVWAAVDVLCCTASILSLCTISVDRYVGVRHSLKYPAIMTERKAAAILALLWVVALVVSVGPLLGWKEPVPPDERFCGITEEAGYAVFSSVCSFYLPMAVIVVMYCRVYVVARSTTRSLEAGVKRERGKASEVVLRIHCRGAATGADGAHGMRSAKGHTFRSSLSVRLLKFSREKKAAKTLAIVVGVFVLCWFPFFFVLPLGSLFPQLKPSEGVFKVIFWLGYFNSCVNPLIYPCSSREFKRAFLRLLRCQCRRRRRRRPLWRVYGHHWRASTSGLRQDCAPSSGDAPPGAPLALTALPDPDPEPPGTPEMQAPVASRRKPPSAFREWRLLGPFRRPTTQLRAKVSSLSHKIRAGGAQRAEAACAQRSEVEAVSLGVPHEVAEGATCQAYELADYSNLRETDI
pKi: −log10 of the molar value.
measured-property: pKi

• Cc1ccc(OC(=O)Nc2ccc3c(c2)CCN3C(=O)c2cccc(CN3CCN(c4ccccc4OC(C)C)CC3)c2)cc1 = 7.70
• Cc1ccc(OC(=O)Nc2ccc3c(c2)N(C(=O)c2cccc(CN4CCN(c5ccccc5OC(C)C)CC4)c2)CC3)cc1 = 8.24

----------
measured-property: melting point

- COc1cccc(OC)c1CNc1ccc2c(c1)CCN2C(=O)c1cccc(CN2CCN(c3ccccc3OC(C)C)CC2)c1: 79 to 81 °C
- CCCCCCCCc1ccc(CNc2ccc3c(c2)CCN3C(=O)c2cccc(CN3CCN(c4ccccc4OC(C)C)CC3)c2)cc1: 116 to 118 °C
- CC(C)Oc1ccccc1N1CCN(Cc2cccc(C(=O)N3CCc4cc(NS(=O)(=O)c5ccc6ccccc6c5)ccc43)c2)CC1: 73 to 76 °C
- Cc1ccc(OC(=O)Nc2ccc3c(c2)CCN3C(=O)c2cccc(CN3CCN(c4ccccc4OC(C)C)CC3)c2)cc1: 166 to 168 °C
- CC(C)Oc1ccccc1N1CCN(Cc2cccc(C(=O)N3CCc4cc(NS(=O)(=O)c5cccc6c(N(C)C)cccc56)ccc43)c2)CC1: 80 to 83 °C
- CC(C)Oc1ccccc1N1CCN(Cc2cccc(C(=O)N3CCc4ccc(NCc5c(F)cccc5F)cc43)c2)CC1: 137 to 139 °C
- COc1cccc(OC)c1C(=O)Nc1ccc2c(c1)CCN2C(=O)c1cccc(CN2CCN(c3ccccc3OC(C)C)CC2)c1: 229 to 232 °C
- CC(=O)Nc1ccc(S(=O)(=O)Nc2ccc3c(c2)CCN3C(=O)c2cccc(CN3CCN(c4ccccc4OC(C)C)CC3)c2)cc1: 132 to 134 °C
- CCOC(OCC)c1ccc(CNc2ccc3c(c2)N(C(=O)c2cccc(CN4CCN(c5ccccc5OC(C)C)CC4)c2)CC3)cc1: 156 to 160 °C
- CC(C)Oc1ccccc1N1CCN(Cc2cccc(C(=O)N3CCc4cc(NCc5ccc(C(F)(F)F)cc5)ccc43)c2)CC1: 74 to 76 °C
- CC(C)Oc1ccccc1N1CCN(Cc2cccc(C(=O)N3CCc4ccc(NS(=O)(=O)c5cccc6c(N(C)C)cccc56)cc43)c2)CC1: 137 to 139 °C
- CC(C)Oc1ccccc1N1CCN(Cc2cccc(C(=O)N3CCc4cc(NCc5c(F)cccc5F)ccc43)c2)CC1: 127 to 130 °C
- Cc1c(S(=O)(=O)Nc2ccc3c(c2)N(C(=O)c2cccc(CN4CCN(c5ccccc5OC(C)C)CC4)c2)CC3)sc2ccc(Cl)cc12: 192 to 195 °C
- CC(C)Oc1ccccc1N1CCN(Cc2cccc(C(=O)N3CCc4cc(N)ccc43)c2)CC1: 137 to 139 °C

----------
target: α1a-AR (Homo sapiens, UniProt P35348); construct: expressed in transfected cells; host or cells: COS-7; assay: α1-Adrenergic receptor radio-ligand (125I-HEAT) binding assay, α1a subtype; conditions: COS-7 cell membranes transfected with α1a-AR, 125I-HEAT 50 pM; read-out: Receptor Binding, Ki α1a-AR
Sequence (P35348 whole entry): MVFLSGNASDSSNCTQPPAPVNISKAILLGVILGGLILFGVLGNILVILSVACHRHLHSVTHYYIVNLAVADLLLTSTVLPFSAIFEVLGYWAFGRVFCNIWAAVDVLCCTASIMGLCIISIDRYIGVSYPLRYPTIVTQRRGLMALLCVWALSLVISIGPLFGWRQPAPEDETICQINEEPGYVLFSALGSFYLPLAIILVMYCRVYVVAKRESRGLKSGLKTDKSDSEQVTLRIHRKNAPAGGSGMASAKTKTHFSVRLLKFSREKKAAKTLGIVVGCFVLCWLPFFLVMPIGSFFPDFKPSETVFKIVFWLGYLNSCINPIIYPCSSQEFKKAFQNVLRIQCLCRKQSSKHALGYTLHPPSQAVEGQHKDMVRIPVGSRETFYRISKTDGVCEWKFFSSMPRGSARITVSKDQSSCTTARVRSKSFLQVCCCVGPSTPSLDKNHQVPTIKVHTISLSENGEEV
measured-property: log10 Ki (log10 of the value in nM)

• CCS(=O)(=O)Nc1ccc2c(c1)N(C(=O)c1cccc(CN3CCN(c4ccccc4OC(C)C)CC3)c1)CC2 [Cpd 47] = 0.36
• CC(C)Oc1ccccc1N1CCN(Cc2cccc(C(=O)N3CCc4ccc(NCc5ccc6c(c5)OCO6)cc43)c2)CC1 [Cpd 41] = 1.49
• COc1ccccc1CN1CCN(Cc2cccc(C(=O)N3CCc4ccccc43)c2)CC1 [Cpd 64] = 2.02
• CC(C)Oc1ccccc1C1CCN(Cc2cccc(C(=O)N3CCc4ccccc43)c2)CC1 [Cpd 51] = -0.10
• COc1cccc(OC)c1CNc1ccc2c(c1)N(C(=O)c1cccc(CN3CCN(c4ccccc4OC(C)C)CC3)c1)CC2 [Cpd 7] = 1.04
• Cc1c(S(=O)(=O)Nc2ccc3c(c2)N(C(=O)c2cccc(CN4CCN(c5ccccc5OC(C)C)CC4)c2)CC3)sc2ccc(Cl)cc12 [Cpd 18] = -1.40
• COc1ccccc1C1CCN(Cc2ccc(C(=O)N3CCc4ccc([N+](=O)[O-])cc43)cc2)CC1 [Cpd 35] = 0.72
